# test.name: Drug metabolism in rat liver microsomes at 5 uM in presence of NADPH after 30 mins at 37 degC
# Assay type: ADME
# reported.conditions: read-out: Drug metabolism
Entries and their metabolised at 0.5 h, 5 µM

chemical.string	value.observed
CCN(Cc1cc(C(F)(F)F)ccc1-c1nn(CC(=O)O)c2ccccc12)C(=O)C1CC1	< 5%

Q: Return value of metabolised at 0.5 h, 5 µM for input CCN(Cc1cc(C(F)(F)F)ccc1-c1cn(CC(=O)O)c2ccccc12)C(=O)C1CC1 , no commentary.
Result: < 5%

###

# subject.of.test: Prostaglandin D2 receptor 2 (Homo sapiens, UniProt Q9Y5Y4)
# Sequence (Q9Y5Y4 whole entry): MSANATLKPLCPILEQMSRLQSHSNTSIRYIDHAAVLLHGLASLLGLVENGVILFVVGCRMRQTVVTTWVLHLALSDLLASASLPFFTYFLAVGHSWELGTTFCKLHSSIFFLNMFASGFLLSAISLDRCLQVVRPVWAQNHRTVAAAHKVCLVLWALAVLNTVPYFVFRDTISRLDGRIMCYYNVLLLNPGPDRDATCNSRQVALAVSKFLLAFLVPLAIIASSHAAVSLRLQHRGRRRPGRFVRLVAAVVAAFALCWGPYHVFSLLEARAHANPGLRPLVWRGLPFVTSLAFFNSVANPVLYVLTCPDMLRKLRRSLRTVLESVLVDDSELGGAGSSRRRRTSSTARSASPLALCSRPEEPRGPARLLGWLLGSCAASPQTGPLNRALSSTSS
# test.name: Antagonist activity at CRTh2 receptor (unknown origin) overexpressed in CHOK1 cell membranes assessed as inhibition of [35S]-GTPgammaS binding at 1 to 5 uM preincubated for 1 hr followed by 50 nM PGD2 and 0.1 nM [35S]-GTPgammaS addition measured after 2 hrs by liquid scintillation counting analysis relative to control
experimental.readout: IC50 (nM)

Some molecules with recorded IC50:
chemical.string	IC50 [nM]
CCN(Cc1cc(C(F)(F)F)ccc1-c1cc(CC(=O)O)cn2ccnc12)C(=O)C1CC1	159
CCN(Cc1cc(C(F)(F)F)ccc1-c1cc(CC(=O)O)c2cccn2c1)C(=O)C1CC1	262

(P) CCN(Cc1cc(C(F)(F)F)ccc1-c1cc(CC(=O)O)c2ccnn2c1)C(=O)C1CC1
(Q) CCN(Cc1cc(C(F)(F)F)ccc1-c1cn(CC(=O)O)c2ccncc12)C(=O)C1CC1
(R) CCN(Cc1cc(C(F)(F)F)ccc1-c1nc(CC(=O)O)c2ccccn12)C(=O)C1CC1
Q: Rank entries according to their IC50, from the largest number down. Lab note: final answer is the ordered label list.
Result: P, R, Q
